molecular target: CDK2/Cyclin A2 (Homo sapiens) (UniProt P24941+P20248); experiment: Inhibition of CDK2/Cyclin A2 (unknown origin) at 100 nM preincubated for 10 mins followed by substrate addition and measured after 60 mins in presence of ATP by ADP-Glo reagent based assay relative to control; format: protein-complex assay; details: time 70.0 min
endpoint.label: inhibition (%)
Give the number; % is assumed, so skip it.

O=C(c1ccc2cc1OCCCCOc1cc(ccc1F)-c1nc(ncc1F)N2)N1CCC(N2CCOCC2)C1 (centres undefined) : 11.7
O=C(c1ccc2cc1OCCCCOc1cc(ccc1F)-c1nc(ncc1F)N2)N1CCC(N2CCOCC2)CC1 : 9.1
O=C(c1ccc2cc1OCCCCOc1cc(ccc1F)-c1nc(ncc1F)N2)N1CCNCC1 : 32.9

Bench note: what inhibition did "O=C(c1ccc2cc1OCCCCOc1cc(ccc1F)-c1nc(ncc1F)N2)N1CCCNCC1" show? 21.2
